Experiment: clinical
Conditions: human, in vivo, 25 mg/m2
measurement.label: AUC (ng·h/mL)

INSERT INTO results (chemical_structure, result) VALUES
  ('COc1ccc(/C=C\c2cc(OC)c(OC)c(OC)c2)cc1NC(=O)[C@@H](N)CO', 383);

====

Assay: clinical
Settings: human, in vivo, 30 mg/m2
measurement.label: AUC (ng·h/mL)

INSERT INTO measurements (chemical_structure, result) VALUES
  ('COc1ccc(/C=C\c2cc(OC)c(OC)c(OC)c2)cc1NC(=O)[C@@H](N)CO', 510);

====

Assay: clinical
Conditions: human, in vivo, 35 mg/m2
measurement.label: Cmax (ng/mL)

INSERT INTO measurements (chemical_structure, result) VALUES
  ('COc1ccc(/C=C\c2cc(OC)c(OC)c(OC)c2)cc1NC(=O)[C@@H](N)CO', 1270);
